- Tested on: nutsedge, yellow (yellow nutsedge, Cyperus esculentus)
- protocol notes: Test C postemergence, plant response rating
- Type: in vivo
- condition label: 62 g ai/ha, scale 0 to 100 (0 no effect, 100 complete control)
- Excerpt: […]
measure name: Nutsedge, Yellow plant response rating
Lab note: record the figure alone, no unit after it.

The recorded Nutsedge, Yellow plant response rating for O=C(OCCC(F)(F)F)c1c(Br)cccc1Oc1ncc(Br)cn1 is 5

The recorded Nutsedge, Yellow plant response rating for O=C(CCCCC(F)(F)F)c1c(Br)cccc1Oc1ncc(Cl)cn1 is 20

The recorded Nutsedge, Yellow plant response rating for FC(F)(F)CCCCc1c(Cl)cccc1Oc1ncc(Cl)cn1 is 10

----------
Listed compounds paired with reported Plant response rating, Barnyardgrass
- System: barnyardgrass (Echinochloa crus-galli)
- protocol notes: Test A preemergence, visual injury rating
- Assay type: in vivo
- condition label: 125 g ai/ha, 0 to 100 scale (0 no effect, 100 complete control)
Lab note: record the figure alone, no unit after it.

The examples below pair each entry with its known result.
- compound: "FC(F)(F)CCCCc1c(Cl)cccc1Oc1ncc(Cl)cn1 [Compound 137]"
  Plant response rating, Barnyardgrass: 90
- compound: "O=C(OCCC(F)(F)F)c1c(Oc2ncc(Cl)cn2)cccc1C(F)(F)F [Compound 113]"
  Plant response rating, Barnyardgrass: 90

Shifting focus to the compound that follows.
The recorded Plant response rating, Barnyardgrass for FC(F)(F)CCCc1c(Cl)cccc1Oc1ncc(Cl)cn1 [Compound 122] is 90

----------
- Test system: wheat (Triticum aestivum)
- protocol notes: Test A postemergence, visual injury rating
- Assay type: in vivo
- condition label: 31 g ai/ha, 0 to 100 scale, 0 is no effect, 100 is complete control, approximately 10 days
measure name: Wheat plant response rating
Lab note: record the figure alone, no unit after it.

The examples below pair each entry with its known result.
- line notation: "COc1cccc(Oc2ncc(Cl)cn2)c1C(=O)OCCC(F)(F)F"
  Wheat plant response rating: 0
- line notation: "CCCCCc1c(C#N)cccc1Oc1ncc(Cl)cn1"
  Wheat plant response rating: 20
- line notation: "O=C(CCCCC(F)(F)F)c1c(Br)cccc1Oc1ncc(Cl)cn1"
  Wheat plant response rating: 10
- line notation: "N#Cc1cccc(Oc2ncc(Cl)cn2)c1C(=O)CCCCC(F)(F)F"
  Wheat plant response rating: 0
- line notation: "N#Cc1cccc(Oc2ncc(Cl)cn2)c1COCCCC(F)(F)F"
  Wheat plant response rating: 0

The recorded Wheat plant response rating for Cc1ccc(Oc2ncc(Cl)cn2)c(C(=O)OCCC(F)(F)F)c1 is 0

----------
Listed molecules paired with reported Plant response rating, Ragweed
- Test system: ragweed (common ragweed, Ambrosia elatior)
- protocol notes: Test A preemergence, visual injury rating
- Assay type: in vivo
- condition label: 125 g ai/ha, 0 to 100 scale (0 no effect, 100 complete control)
Lab note: record the figure alone, no unit after it.

The recorded Plant response rating, Ragweed for N#Cc1cccc(Oc2ncc(Cl)cn2)c1C(=O)CCC(F)(F)C(F)(F)F is 0

The recorded Plant response rating, Ragweed for CCCCCOC(=O)c1c(Br)cccc1Oc1ncc(Cl)cn1 is 0

The recorded Plant response rating, Ragweed for CCCCC(C#N)c1ccccc1Oc1ncc(Cl)cn1 (centres unmarked) is 0

The recorded Plant response rating, Ragweed for CCCC(C#N)c1c(Br)cccc1Oc1ncc(Cl)cn1 (centres unmarked) is 50

The recorded Plant response rating, Ragweed for N#CC(CCCCC(F)(F)F)c1ccccc1Oc1ncc(Cl)cn1 (centres unmarked) is 30
